IC50 (nM), in vitro killing activity, BXPC3 Cell for assorted binders
# TARGET: T1, Tumor-associated calcium signal transducer 2 (UniProt P09758 27-323, limits assumed)
# T1 sequence (looked up): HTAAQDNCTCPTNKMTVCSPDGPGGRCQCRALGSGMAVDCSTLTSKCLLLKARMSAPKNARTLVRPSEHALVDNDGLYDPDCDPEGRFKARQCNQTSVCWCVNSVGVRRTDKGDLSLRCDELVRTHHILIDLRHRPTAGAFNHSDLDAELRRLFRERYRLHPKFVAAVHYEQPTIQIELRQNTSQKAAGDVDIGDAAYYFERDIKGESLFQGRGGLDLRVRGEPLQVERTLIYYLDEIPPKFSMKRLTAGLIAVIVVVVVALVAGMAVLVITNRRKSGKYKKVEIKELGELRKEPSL
# TEST NAME: cell-based or functional assay
RESULT TYPE: IC50 (nM), in vitro killing activity, BXPC3 Cell

BINDER | MEASURE UNIT | ENDPOINT VALUE
FDA018-LS13 (antibody, human IgG1, kappa, V domains shown, linker-drug LS13 (SN-38 payload) coupled to cysteine sulfhydryl groups after reduction of the interchain disulfide bonds; DAR 3.97 for the whole antibody; sites not stated) VH: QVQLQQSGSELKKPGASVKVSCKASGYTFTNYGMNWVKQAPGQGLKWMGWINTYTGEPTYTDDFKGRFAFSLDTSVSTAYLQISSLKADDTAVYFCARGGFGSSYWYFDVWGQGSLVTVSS VL: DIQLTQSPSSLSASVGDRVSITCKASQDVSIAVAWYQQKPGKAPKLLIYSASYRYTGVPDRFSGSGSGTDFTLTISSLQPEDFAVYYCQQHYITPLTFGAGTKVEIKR | nM | 61.3
FDA018-LE12 (antibody, human IgG1, kappa, V domains shown, linker-drug LE12 (Dxd payload) coupled to cysteine sulfhydryl groups after reduction of the interchain disulfide bonds; DAR 3.90 for the whole antibody; sites not stated) VH: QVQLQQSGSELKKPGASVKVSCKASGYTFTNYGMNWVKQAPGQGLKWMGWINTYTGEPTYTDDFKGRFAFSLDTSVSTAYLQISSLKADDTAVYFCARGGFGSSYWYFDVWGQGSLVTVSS VL: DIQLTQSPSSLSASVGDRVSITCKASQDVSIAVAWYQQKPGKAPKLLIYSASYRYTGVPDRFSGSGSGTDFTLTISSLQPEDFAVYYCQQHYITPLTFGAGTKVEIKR | nM | 0.68
FDA018-LE22 (antibody, human IgG1, kappa, V domains shown, linker-drug LE22 coupled to cysteine sulfhydryl groups after reduction of the interchain disulfide bonds; DAR 4.00 for the whole antibody; sites not stated) VH: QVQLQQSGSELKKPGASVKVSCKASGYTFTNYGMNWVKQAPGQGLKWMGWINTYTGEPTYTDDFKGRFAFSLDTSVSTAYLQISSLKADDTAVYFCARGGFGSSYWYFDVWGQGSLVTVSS VL: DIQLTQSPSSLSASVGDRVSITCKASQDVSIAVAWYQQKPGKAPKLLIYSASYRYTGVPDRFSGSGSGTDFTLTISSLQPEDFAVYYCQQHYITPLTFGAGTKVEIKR | nM | 1.69
FDA018-LE21 (antibody, human IgG1, kappa, V domains shown, linker-drug LE21 coupled to cysteine sulfhydryl groups after reduction of the interchain disulfide bonds; DAR 4.05 for the whole antibody; sites not stated) VH: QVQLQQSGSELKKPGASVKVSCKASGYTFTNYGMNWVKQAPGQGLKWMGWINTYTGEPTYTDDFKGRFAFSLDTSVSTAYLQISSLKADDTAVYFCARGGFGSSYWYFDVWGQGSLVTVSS VL: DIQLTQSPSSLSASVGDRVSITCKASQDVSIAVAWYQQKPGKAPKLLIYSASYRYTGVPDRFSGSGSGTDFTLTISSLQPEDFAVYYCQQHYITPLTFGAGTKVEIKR | nM | 1.23
FDA018-LE13 (antibody, human IgG1, kappa, V domains shown, linker-drug LE13 coupled to cysteine sulfhydryl groups after reduction of the interchain disulfide bonds; DAR 4.10 for the whole antibody; sites not stated) VH: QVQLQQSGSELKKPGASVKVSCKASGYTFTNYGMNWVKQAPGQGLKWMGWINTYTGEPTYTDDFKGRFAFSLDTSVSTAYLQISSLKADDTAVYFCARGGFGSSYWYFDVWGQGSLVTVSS VL: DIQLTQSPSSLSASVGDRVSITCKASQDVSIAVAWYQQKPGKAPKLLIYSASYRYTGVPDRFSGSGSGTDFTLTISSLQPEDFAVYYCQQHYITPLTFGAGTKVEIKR | nM | 1.23
